Could you please report measured CC50 for the items listed next?
# System: CAKI-1
# EXPERIMENT DESCRIPTION: NCI 60 cell line five dose, Renal Cancer
# TEST PARAMETERS: read-out: LC50
One number for each entry, in µM.

C=C1C(=O)O[C@H]2[C@H]1CC/C(COC(=O)NCCCCCNC(=O)OC/C1=C/CC[C@@]3(C)O[C@H]3[C@H]3OC(=O)C(=C)[C@@H]3CC1)=C\CC[C@@]1(C)O[C@@H]21 :: 68.1

With those in mind, consider the next compound.
*Q* GET /values?readout=CC50&item= C=C1C(=O)O[C@H]2[C@H]1CC/C(COC(=O)NCCCCNC(=O)OC/C1=C/CC[C@@]3(C)O[C@H]3[C@H]3OC(=O)C(=C)[C@@H]3CC1)=C\CC[C@@]1(C)O[C@@H]21
*A* 49.1

###

# Test system: OVCAR-3
# EXPERIMENT DESCRIPTION: NCI 60 cell line five dose, Ovarian Cancer
# TEST PARAMETERS: read-out: LC50, molar
REPORTED METRIC: CC50

*Q* State its CC50 on OVCAR-3: C=C1C(=O)O[C@H]2[C@H]1CC/C(COC(=O)NCCCCCCCCNC(=O)OC/C1=C/CC[C@@]3(C)O[C@H]3[C@H]3OC(=O)C(=C)[C@@H]3CC1)=C\CC[C@@]1(C)O[C@@H]21
*A* 3.32 µM

###

# Test system: MDA-MB-231/ATCC
# EXPERIMENT DESCRIPTION: NCI 60 cell line five dose, Breast Cancer
# TEST PARAMETERS: read-out: LC50
REPORTED METRIC: CC50
# output: numeric value plus its unit

*Q* Query: CC50; subject: C=C1C(=O)O[C@H]2[C@H]1CC/C(COC(=O)NCCCCCNC(=O)OC/C1=C/CC[C@@]3(C)O[C@H]3[C@H]3OC(=O)C(=C)[C@@H]3CC1)=C\CC[C@@]1(C)O[C@@H]21 [JVM 2-76]
*A* 6.4 µM

###

Hi there, I'd appreciate the recorded CC50 for every entry that follows.
# System: SF-539
# EXPERIMENT DESCRIPTION: NCI 60 cell line five dose, CNS Cancer
# TEST PARAMETERS: read-out: LC50
Answers are plain numbers, in µM.

C=C1C(=O)O[C@H]2[C@H]1CC/C(COC(=O)NCCCCCNC(=O)OC/C1=C/CC[C@@]3(C)O[C@H]3[C@H]3OC(=O)C(=C)[C@@H]3CC1)=C\CC[C@@]1(C)O[C@@H]21 :: 12.7

*Q* Can you look up the measured CC50 of C=C1C(=O)O[C@H]2[C@H]1CC/C(COC(=O)NCCCCNC(=O)OC/C1=C/CC[C@@]3(C)O[C@H]3[C@H]3OC(=O)C(=C)[C@@H]3CC1)=C\CC[C@@]1(C)O[C@@H]21 for me?
*A* 8.84

###

# Tested on: SF-295
# EXPERIMENT DESCRIPTION: NCI 60 cell line five dose, CNS Cancer
REPORTED METRIC: GI50 (µM)
Give bare numbers, in µM.

# example entries with known answers
C=C1C(=O)O[C@H]2[C@H]1CC/C(COC(=O)CCC(=O)NCCCCCCCCCNC(=O)CCC(=O)OC/C1=C/CC[C@@]3(C)O[C@H]3[C@H]3OC(=O)C(=C)[C@@H]3CC1)=C\CC[C@@]1(C)O[C@@H]21 :: 7.68
C=C1C(=O)O[C@H]2[C@H]1CC/C(COC(=O)CCC(=O)NCCCCCCCCNC(=O)CCC(=O)OC/C1=C/CC[C@@]3(C)O[C@H]3[C@H]3OC(=O)C(=C)[C@@H]3CC1)=C\CC[C@@]1(C)O[C@@H]21 :: 15.1
C=C1C(=O)O[C@H]2[C@H]1CC/C(COC(=O)NCCCCNC(=O)OC/C1=C/CC[C@@]3(C)O[C@H]3[C@H]3OC(=O)C(=C)[C@@H]3CC1)=C\CC[C@@]1(C)O[C@@H]21 :: 13

*Q* So what does the record say about GI50 for C=C1C(=O)O[C@H]2[C@H]1CC/C(COC(=O)NCCCCCNC(=O)OC/C1=C/CC[C@@]3(C)O[C@H]3[C@H]3OC(=O)C(=C)[C@@H]3CC1)=C\CC[C@@]1(C)O[C@@H]21 ?
*A* 11.1
